Below, each of the compounds is paired with its reported IC50 value.
# System: HL-60
# assayDetails: Cytotoxicity against human HL60 cells incubated for 72 hrs by MTT assay
# assayConditions: HL-60, 72 h
Please answer using the number first and the unit second.

Consider the following illustrative entries.
CC[C@@H](C(=O)[C@@H](C)[C@@H](O)[C@H](C)[C@@H]1O[C@@H]([C@@H](CC)C(=O)NCCc2c[nH]c3ccccc23)CC[C@@H]1C)[C@H]1O[C@]2(C=C[C@@H](O)[C@]3(CC[C@@](C)([C@H]4CC[C@](O)(CC)[C@H](C)O4)O3)O2)[C@H](C)C[C@@H]1C	3.52 µM
CC[C@@H](C(=O)[C@@H](C)[C@@H](O)[C@H](C)[C@@H]1O[C@@H]([C@@H](CC)C(=O)O)CC[C@@H]1C)[C@H]1O[C@]2(C=C[C@@H](O)[C@]3(CC[C@@](C)([C@H]4CC[C@](O)(CC)[C@H](C)O4)O3)O2)[C@H](C)C[C@@H]1C	0.44 µM
CC[C@@H](C(=O)[C@@H](C)[C@@H](O)[C@H](C)[C@@H]1O[C@@H]([C@@H](CC)C(=O)NCc2ccccc2)CC[C@@H]1C)[C@H]1O[C@]2(C=C[C@@H](O)[C@]3(CC[C@@](C)([C@H]4CC[C@](O)(CC)[C@H](C)O4)O3)O2)[C@H](C)C[C@@H]1C	3.63 µM

Sample `CCCCNC(=O)[C@H](CC)[C@H]1CC[C@H](C)[C@H]([C@@H](C)[C@H](O)[C@H](C)C(=O)[C@H](CC)[C@H]2O[C@]3(C=C[C@@H](O)[C@]4(CC[C@@](C)([C@H]5CC[C@](O)(CC)[C@H](C)O5)O4)O3)[C@H](C)C[C@@H]2C)O1` — what was its IC50?
3.88 µM

---

# System: BALB/3T3
# assayDetails: Selectivity index, ratio of IC50 for mouse BALB/3T3 cells to IC50 doxorubicin-resistant human LoVo/DX cells
Note to self: values exactly at 4 are YES. So Ratio IC50 at or above 4 is YES, below is NO.

Known results for molecules:
CC[C@@H](C(=O)[C@@H](C)[C@@H](O)[C@H](C)[C@@H]1O[C@@H]([C@@H](CC)C(=O)O)CC[C@@H]1C)[C@H]1O[C@]2(C=C[C@@H](O)[C@]3(CC[C@@](C)([C@H]4CC[C@](O)(CC)[C@H](C)O4)O3)O2)[C@H](C)C[C@@H]1C	YES
CC[C@@H](C(=O)[C@@H](C)[C@@H](O)[C@H](C)[C@@H]1O[C@@H]([C@@H](CC)C(=O)NCc2ccccc2)CC[C@@H]1C)[C@H]1O[C@]2(C=C[C@@H](O)[C@]3(CC[C@@](C)([C@H]4CC[C@](O)(CC)[C@H](C)O4)O3)O2)[C@H](C)C[C@@H]1C	NO
CC[C@@H](C(=O)[C@@H](C)[C@@H](O)[C@H](C)[C@@H]1O[C@@H]([C@@H](CC)C(=O)On2nnc3ccccc32)CC[C@@H]1C)[C@H]1O[C@]2(C=C[C@@H](O)[C@]3(CC[C@@](C)([C@H]4CC[C@](O)(CC)[C@H](C)O4)O3)O2)[C@H](C)C[C@@H]1C	YES
CC[C@@H](C(=O)[C@@H](C)[C@@H](O)[C@H](C)[C@@H]1O[C@@H]([C@@H](CC)C(=O)Nc2ccccc2)CC[C@@H]1C)[C@H]1O[C@]2(C=C[C@@H](O)[C@]3(CC[C@@](C)([C@H]4CC[C@](O)(CC)[C@H](C)O4)O3)O2)[C@H](C)C[C@@H]1C	NO
CC[C@@H](C(=O)[C@@H](C)[C@@H](O)[C@H](C)[C@@H]1O[C@@H]([C@@H](CC)C(=O)NCCCN2CCOCC2)CC[C@@H]1C)[C@H]1O[C@]2(C=C[C@@H](O)[C@]3(CC[C@@](C)([C@H]4CC[C@](O)(CC)[C@H](C)O4)O3)O2)[C@H](C)C[C@@H]1C	NO

Then this molecule:
Check this molecule for Ratio IC50 at or above 4: `CC[C@@H](C(=O)[C@@H](C)[C@@H](O)[C@H](C)[C@@H]1O[C@@H]([C@@H](CC)C(=O)NCCc2c[nH]c3ccccc23)CC[C@@H]1C)[C@H]1O[C@]2(C=C[C@@H](O)[C@]3(CC[C@@](C)([C@H]4CC[C@](O)(CC)[C@H](C)O4)O3)O2)[C@H](C)C[C@@H]1C`
NO

---

# System: BALB/3T3
# assayDetails: Selectivity index, ratio of IC50 for mouse BALB/3T3 cells to IC50 doxorubicin-resistant human LoVo/DX cells
experimentalReadout: Ratio IC50
Could you respond with only the numeric value?

The examples below pair each entry with its known result.
CCCCNC(=O)[C@H](CC)[C@H]1CC[C@H](C)[C@H]([C@@H](C)[C@H](O)[C@H](C)C(=O)[C@H](CC)[C@H]2O[C@]3(C=C[C@@H](O)[C@]4(CC[C@@](C)([C@H]5CC[C@](O)(CC)[C@H](C)O5)O4)O3)[C@H](C)C[C@@H]2C)O1	2.56
CC[C@@H](C(=O)[C@@H](C)[C@@H](O)[C@H](C)[C@@H]1O[C@@H]([C@@H](CC)C(=O)NCCOCCOCCOC)CC[C@@H]1C)[C@H]1O[C@]2(C=C[C@@H](O)[C@]3(CC[C@@](C)([C@H]4CC[C@](O)(CC)[C@H](C)O4)O3)O2)[C@H](C)C[C@@H]1C	1.28

# ---- query compound ----
So what does the record say about Ratio IC50 for `CC[C@@H](C(=O)[C@@H](C)[C@@H](O)[C@H](C)[C@@H]1O[C@@H]([C@@H](CC)C(=O)Nc2ccc3c(c2)OCCOCCOCCOCCO3)CC[C@@H]1C)[C@H]1O[C@]2(C=C[C@@H](O)[C@]3(CC[C@@](C)([C@H]4CC[C@](O)(CC)[C@H](C)O4)O3)O2)[C@H](C)C[C@@H]1C` ?
4.51

---

# Test system: LoVo
# assayDetails: Cytotoxicity against human LoVo cells incubated for 72 hrs by MTT assay
# Assay type: functional, cell-based
Each entry below carries its recorded IC50.
The reply should consist of the numeric value with the unit placed after it.

Fill in the recorded IC50 for this compound, with LoVo as test system: COc1cccc2c1C(=O)c1c(O)c3c(c(O)c1C2=O)C[C@@](O)(C(=O)CO)C[C@@H]3O[C@H]1C[C@H](N)[C@H](O)[C@H](C)O1 [DOXORUBICIN]
0.38 µM

---

# Tested on: HL-60
# assayDetails: Resistance index, ratio of IC50 for vincristine-resistant human HL60/Vinc cells to IC50 for parental human HL60 cells
# Type: functional
experimentalReadout: Ratio IC50
No unit in the answer, please; the number alone is enough.

Fill in the blank: the reported Ratio IC50 of `CC[C@@H](C(=O)[C@@H](C)[C@@H](O)[C@H](C)[C@@H]1O[C@@H]([C@@H](CC)C(=O)Nc2ccccc2)CC[C@@H]1C)[C@H]1O[C@]2(C=C[C@@H](O)[C@]3(CC[C@@](C)([C@H]4CC[C@](O)(CC)[C@H](C)O4)O3)O2)[C@H](C)C[C@@H]1C` is ____.
1.14

---

# Test system: HL-60
# assayDetails: Cytotoxicity against human HL60 cells incubated for 72 hrs by MTT assay
# assayConditions: HL-60, 72 h
Entries annotated with measured pIC50
Schema: pIC50 number; meaning minus log10 of the concentration expressed in molar units.

Name the reported pIC50 value associated with the compound `CC[C@@H](C(=O)[C@@H](C)[C@@H](O)[C@H](C)[C@@H]1O[C@@H]([C@@H](CC)C(=O)Nc2ccc3c(c2)OCCOCCOCCOCCO3)CC[C@@H]1C)[C@H]1O[C@]2(C=C[C@@H](O)[C@]3(CC[C@@](C)([C@H]4CC[C@](O)(CC)[C@H](C)O4)O3)O2)[C@H](C)C[C@@H]1C`
5.51

Give its pIC50 value. Item: `CC[C@@H](C(=O)[C@@H](C)[C@@H](O)[C@H](C)[C@@H]1O[C@@H]([C@@H](CC)C(=O)NCCOCCOCCOC)CC[C@@H]1C)[C@H]1O[C@]2(C=C[C@@H](O)[C@]3(CC[C@@](C)([C@H]4CC[C@](O)(CC)[C@H](C)O4)O3)O2)[C@H](C)C[C@@H]1C`
4.60

Given the compound `CC[C@@H](C(=O)[C@@H](C)[C@@H](O)[C@H](C)[C@@H]1O[C@@H]([C@@H](CC)C(=O)On2nnc3ccccc32)CC[C@@H]1C)[C@H]1O[C@]2(C=C[C@@H](O)[C@]3(CC[C@@](C)([C@H]4CC[C@](O)(CC)[C@H](C)O4)O3)O2)[C@H](C)C[C@@H]1C` , what is its reported pIC50?
5.74
